As shown below, each of these molecules has a reported growth value.
Test system: MDA-MB-231 breast
Experiment: NCI-60 one-dose screen, 48 h (100 = growth as untreated, 0 = no growth, -100 = all killed)
Settings: 10 µM unless noted
About 83,000 compounds went through this panel and 20% of them were active in at least one assay; those are over-represented in the sample as a whole.

structure_as_smiles	tested_system	growth (%)
COc1ccc2c(c1)c(-c1nc(-c3c[nH]c4ncccc34)cs1)cn2CCNC(=O)OC(C)(C)C	MDA-MB-231 breast	53.2
Cc1cc(N(CCCNc2ccnc3cc(Cl)ccc23)Cc2ccco2)nc(Cl)n1	MDA-MB-231 breast	61.7
Cc1csc(Nc2nc(-c3ccc(Cl)cc3)nc(C(Cl)(Cl)Cl)n2)n1	MDA-MB-231 breast	79.9
COc1ccc2c(c1)c(-c1nc(-c3c[nH]c4ncccc34)cs1)cn2CCN	MDA-MB-231 breast	53.7
CCCCCCCCNc1cccc2c1C(=O)c1ccccc1C2=O	MDA-MB-231 breast	96.1
O=C1c2cccc3cccc(c23)C(=O)N1CC#Cc1ccc2c3c(cccc13)C(=O)N(CCO)C2=O	MDA-MB-231 breast	66.9
CCC(=O)c1c(C)[nH]c(C)c1C	MDA-MB-231 breast	95.8
CN(C)c1ccc(-c2ccc(-c3ccc(C(=N)N)c(F)c3)s2)cc1	MDA-MB-231 breast	-78.4
CN1CCN(CCOc2ccc(-c3cnc4c(-c5cccc(F)c5)cnn4c3)cc2)CC1	MDA-MB-231 breast	47.7
Cc1cc2nc3c4cc([N+](=O)[O-])cc([N+](=O)[O-])c4n(CCN(C)C)c3nc2cc1C	MDA-MB-231 breast	77.2

* * *

Parameter: growth. Scope: all listed entries.
Test system: SR leukemia
Experiment: NCI-60 one-dose screen, 48 h (100 = growth as untreated, 0 = no growth, -100 = all killed)
Settings: 10 µM unless noted
This is part of a sample that, as a whole, favours compounds with a hit. Of some 83,000 tested, about 20% had one in any assay.

compound	growth [%]
O=C(NCN1C(=O)c2cccc3cccc(c23)C1=O)N1CCC(Cc2ccccc2)CC1	89.6
Cc1cc(C)n(Cc2cc(C(C)(C)C)cc(C(C)(C)C)c2)c(=O)c1C#N	84
Nc1nc(N)c2nc3c(nc2n1)CCCCCCCCCC3	32.2
COC(=O)[C@]12CC[C@@H](C)[C@H](C)[C@@H]1C1=CC(=O)[C@@H]3[C@@]4(C)C[C@@H](O)[C@H](O)[C@@]5(C)COC(=C45)C[C@@]3(C)[C@]1(C)CC2	7.5
CC(=O)c1c(C)[nH]c(-c2nc3ccc(N4CCN(C)CC4)cc3[nH]2)c1-c1ccc2c(c1)OCCO2	46.2
COc1cc2c(cc1OC)C(=O)/C(=C/c1cc(-c3ccc4c(c3)OCO4)n[nH]1)C2	-43.8
COC(c1ccccc1)(c1ccccc1)c1ccccc1	114
Nc1nc2c3ccncc3cc(-c3cccc(Cl)c3)c2c2cnccc12	9.04
Cc1ccccc1-c1nc(C(Cl)Cl)nc2cc(-c3ccccc3)nn12	50.2
CCN(CC)CCCCCNc1cc(OC(=O)c2ccccc2)cc2cccnc12	-38.1
CNC(=O)c1cc(Oc2ccc3nc(NC(=O)Nc4ccc(Cl)cc4)sc3c2)ccn1	42.7
Cn1cc(-c2nc(-c3cn(C)c4ncccc34)cs2)c2cc(F)ccc21	22.4
CN(C)c1ccc(N=C2C=CC(=O)C=C2)cc1	25.9
C=CC(=O)N[C@H](Cc1ccc(-c2cc(Cl)cc(Cl)c2)cc1)[C@H](O)[C@@H](O)C(=O)O	81.6
O=C1/C(=C\C(Cl)=C/c2ccc([N+](=O)[O-])cc2)SC(=S)N1CCc1ccc(O)cc1	13.2
Clc1cc(Cl)cc(Nc2ccc3c(OCCCN4CCOCC4)cccc3n2)c1	6.22
Cn1cc(-c2csc(-c3c[nH]c4ccccc34)n2)c2cccnc21	27.4
c1ccc(C2Cc3ccccc3C2=NC2CCCCC2)cc1 (stereo not given)	91.1
O=C1OC(c2ccc(Cl)c(Cl)c2)=C/C1=C/c1cccc([N+](=O)[O-])c1	117
Cn1cc(-c2csc(-c3cn(CCN)c4ccc(Br)cc34)n2)c2cccnc21	9.41

Values from PubChem BioAssay (NCI)
